# Read-out: Monocyte Chemoattractant Protein-1 (MCP1), CCL2 (gene 6347)
# test.details: BSK_LPS_MCP1: BioMAP Diversity Plus: LPS Assay for Monocyte Chemoattractant Protein-1 (MCP1) Biomarker Activity (AID 2283081)
# condition.notes: primary human HUVEC with PBMC; actives raise or lower the signal
Active and inactive are the calls of the source. How the source made its calls: active means hit-call score of the fitted dose curve at least 0.9, where 1 is the maximum; inactive means score below 0.9.
Outcome codes: active, inactive

molecule	class.assignment
COC(=O)[C@H]1[C@H]2C[C@@H]3c4[nH]c5cc(OC)ccc5c4CCN3C[C@H]2C[C@@H](OC(=O)c2cc(OC)c(OC)c(OC)c2)[C@@H]1OC	active
CSc1ccc(Oc2ccc(S(N)(=O)=O)cc2CN(C)C)cc1C	inactive
CN(C)C(=O)NC1(c2ccccc2)CCN(CC[C@@]2(c3ccc(F)c(F)c3)CN(C(=O)c3ccccc3)CCO2)CC1	inactive
CC(=O)OC1CC(C)OC(C)O1 (stereo not drawn)	inactive
CCCCOC(=O)CCCCC(=O)OCCCC	inactive
CCCCCCCCCCCCCCOS(=O)(=O)O	inactive
COc1ccc(C(=O)Nc2nc3ccccc3c(NCc3ccccc3)c2C#N)cc1	inactive
CCCCCCCC(=O)OC	inactive
COc1ccc(OC(F)(F)F)cc1CN[C@H]1CCCN[C@H]1c1ccccc1	active
CCCCC(CC)COC(=O)CCCCCCCC(=O)OCC(CC)CCCC (stereo not drawn)	inactive
N[C@@H](Cc1c[nH]c2ccccc12)C(=O)O	inactive
O=C(O)c1cccnc1	inactive
C=CCCCCCCCCCCCC	inactive
